Target: HSV-1 ribonucleotide reductase (Human herpesvirus 1)
Construct: HSV-1 ribonucleotide reductase (partially purified) was obtained from quiescent BHK-21/C13 cells infected with strain F HSV-1 virus; endogenous in cells; host or cells: quiescent BHK-21/C13 (hamster) cells infected with HSV-1 strain F; partially purified enzyme preparation
Sequence (P08543 whole entry): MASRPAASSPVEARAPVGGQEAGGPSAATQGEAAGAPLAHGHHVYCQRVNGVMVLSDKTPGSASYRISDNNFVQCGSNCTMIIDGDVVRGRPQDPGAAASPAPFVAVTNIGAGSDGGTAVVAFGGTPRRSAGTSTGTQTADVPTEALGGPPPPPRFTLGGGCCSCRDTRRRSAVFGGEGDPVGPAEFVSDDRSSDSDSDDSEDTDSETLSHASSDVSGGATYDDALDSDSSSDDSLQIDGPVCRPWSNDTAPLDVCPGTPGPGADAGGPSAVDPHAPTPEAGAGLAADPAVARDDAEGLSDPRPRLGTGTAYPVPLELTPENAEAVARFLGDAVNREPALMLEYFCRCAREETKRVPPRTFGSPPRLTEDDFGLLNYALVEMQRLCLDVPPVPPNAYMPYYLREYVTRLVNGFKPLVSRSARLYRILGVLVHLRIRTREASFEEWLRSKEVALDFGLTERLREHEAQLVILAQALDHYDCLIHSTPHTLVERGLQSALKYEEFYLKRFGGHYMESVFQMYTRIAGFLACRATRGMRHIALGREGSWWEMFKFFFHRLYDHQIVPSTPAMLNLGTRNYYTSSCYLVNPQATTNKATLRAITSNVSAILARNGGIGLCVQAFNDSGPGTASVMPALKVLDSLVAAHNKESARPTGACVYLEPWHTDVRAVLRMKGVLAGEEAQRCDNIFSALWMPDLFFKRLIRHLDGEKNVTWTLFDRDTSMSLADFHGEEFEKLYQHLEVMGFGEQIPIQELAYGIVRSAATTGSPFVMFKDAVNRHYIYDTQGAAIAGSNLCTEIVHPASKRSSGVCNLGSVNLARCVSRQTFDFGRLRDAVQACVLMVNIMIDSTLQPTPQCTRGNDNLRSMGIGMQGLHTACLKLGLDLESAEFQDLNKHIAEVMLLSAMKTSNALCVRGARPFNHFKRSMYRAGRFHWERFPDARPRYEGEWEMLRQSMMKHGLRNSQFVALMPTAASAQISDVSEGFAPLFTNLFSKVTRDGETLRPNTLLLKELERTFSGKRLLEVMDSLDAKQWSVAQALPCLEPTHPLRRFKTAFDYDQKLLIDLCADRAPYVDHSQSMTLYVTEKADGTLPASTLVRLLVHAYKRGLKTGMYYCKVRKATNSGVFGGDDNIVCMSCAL
Experiment: Inhibition of Herpes Simplex Virus (HSV, Type 1) Ribonucleotide Reductase
Format: biochemical, herpes simplex virus type 1 (strain F)
Conditions: separated diastereoisomer, second eluted on HPLC (footnotes 1, 3); mean of four assays
Where a SMILES comes first, the peptide text is derived from it. The star is where a group is joined. X1 = CC1CCC(C)C(C(=O)*)C1C(=O)OCCc1ccccc1; X3 = O=C(CCc1ccccc1)C1CCCCC1C(=O)*; Pyrrolidide = C1CCN(*)C1; NEt2 = CCN(CC)*

compound	IC50 / µM
CC[C@H](C)[C@H](NC(=O)C1CCCCC1C(=O)CCc1ccccc1)C(=O)N[C@@H](CC(=O)N(CC)CC)C(=O)N[C@@H](CC(=O)O)C(=O)N[C@@H](CC(C)C)C(=O)O (stereo partly drawn) (X3-ID(NEt2)DL-OH)	34
CC[C@H](C)[C@H](NC(=O)C1C(C)CCC(C)C1C(=O)OCCc1ccccc1)C(=O)N[C@@H](CC(=O)N1CCCC1)C(=O)N[C@@H](CC(=O)O)C(=O)N[C@@H](CC(C)C)C(=O)O (stereo partly drawn) (X1-ID(Pyrrolidide)DL-OH)	2.3
